System: Wild type
Experiment: S. aureus survival, RN4220 and DeltatarO strains – OD600, teichoic acid synthesis inhibitors, primary screen (AID 463173)
Settings: S. aureus RN4220 wild type/DeltatarO growth, OD600, 18 h, screened at 18.75 µg/mL (by protocol)
Screen size: about 52,000 compounds; about 1,700 (3.3%) were called active. No stated cut-off is given here; in the data, active means survival mostly below about 52% (no sharp cut-off); inactive means mostly above about 56%. The full list was thinned out, with actives kept by preference.
// classify into yes (1) (active), no (0) (inactive)

Ask: Called result for "Cc1ccc(NC(=O)CSc2nc3ccccc3nc2N2CCOCC2)cc1"
Reply: no (0)

Ask: Called result for "CCOCCCNC(=O)c1cnc2sc(N3CCCCCC3)nn2c1=O"
Reply: no (0)

Ask: Called result for "Cc1ccccc1CNC(=O)Cc1csc2ccccc12"
Reply: no (0)

Ask: Called result for "CCOc1ccc(NC(=O)CSc2nc3ccccc3nc2N2CCOCC2)cc1"
Reply: no (0)

Ask: Called result for "Cc1ccc(-c2nc(C)c(CCNS(=O)(=O)c3ccccc3F)s2)cc1"
Reply: no (0)

Ask: Called result for "Cc1cc(C)cc(NC(=O)c2cc(C)nc3c2c(C)nn3-c2ccccc2)c1"
Reply: yes (1)

Ask: Called result for "Cc1cc(Cl)ccc1NC(=O)Cn1nc(C)c2c(C)n(-c3ccccc3)nc2c1=O"
Reply: no (0)
